src = patent EP2140864A2

- tested_on: human α2A adrenoceptor (Homo sapiens, UniProt P08913)
- Construct: expressed in transfected cells
- Sequence (P08913 whole entry): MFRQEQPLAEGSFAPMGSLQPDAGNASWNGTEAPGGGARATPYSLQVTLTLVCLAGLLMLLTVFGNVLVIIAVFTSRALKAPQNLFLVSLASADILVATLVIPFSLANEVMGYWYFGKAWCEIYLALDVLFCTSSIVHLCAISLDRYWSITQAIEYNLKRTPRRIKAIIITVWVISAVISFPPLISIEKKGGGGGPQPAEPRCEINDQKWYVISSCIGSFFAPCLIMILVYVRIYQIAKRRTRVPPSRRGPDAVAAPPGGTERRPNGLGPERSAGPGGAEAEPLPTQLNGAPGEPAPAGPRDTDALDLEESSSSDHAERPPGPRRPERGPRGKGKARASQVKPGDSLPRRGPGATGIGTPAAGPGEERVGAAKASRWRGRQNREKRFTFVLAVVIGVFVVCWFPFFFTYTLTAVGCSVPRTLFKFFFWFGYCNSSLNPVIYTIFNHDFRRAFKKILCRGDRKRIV
- protocol_summary: Radioligand binding, α2A adrenergic receptor
- condition_summary: Table 9; read-out: hα2A Ki
pKi: −log10 of the molar value.
Items are presented alongside their recorded pKi.

- molecule: "O=C1C(=Nc2ccc(C(F)(F)F)cc2)c2ccccc2N1c1ccccc1 [Example 95]"
  pKi: 4.52
- molecule: "Cc1ccc(Nc2cc(N3CCCCC3)nc(N3CCN(c4ncccc4C(F)(F)F)CC3)n2)cc1 [Example 34]"
  pKi: 5.43
- molecule: "O=C1C(=Nc2ccc(Br)cc2)c2ccccc2N1c1ccccc1 [Example 98]"
  pKi: 4.63
- molecule: "O=C1C(=Nc2ccc(Cl)cc2)c2ccccc2N1c1ccccc1 [Example 97]"
  pKi: 4.87
- molecule: "COc1cccc(Nc2cc(N3CCCCC3)nc(N(C)CCc3c[nH]c4ccccc34)n2)c1 [Example 17]"
  pKi: 5.45
- molecule: "O=C1C(=Nc2cccc(Cl)c2)c2ccccc2N1c1ccccc1 [Example 94]"
  pKi: 4.90
- molecule: "CN(CCc1c[nH]c2ccccc12)c1nc(Nc2ccc(F)c(F)c2)cc(N2CCCCC2)n1 [Example 15]"
  pKi: 4.84
- molecule: "Cc1ccc(Nc2cc(N3CCCCC3)nc(N(C)CCc3c[nH]c4ccccc34)n2)cc1 [Example 11]"
  pKi: 5.74
- molecule: "Cc1ccc(Nc2cc(N3CCCCC3)nc(N(C)CCc3ccccc3)n2)cc1 [Example 22]"
  pKi: 6.04
- molecule: "CN(C)c1cc(Nc2ccc(Cl)c(Cl)c2)nc(Nc2ccccc2)n1 [Example 60]"
  pKi: 4.97
- molecule: "Cc1ccc(Nc2cc(N(C)C)nc(N(C)CCc3c[nH]c4ccccc34)n2)cc1 [Example 77]"
  pKi: 6.50

* * *

- tested_on: human 5HT6 (Homo sapiens)
- Construct: expressed in transfected cells
- Sequence (P50406 whole entry): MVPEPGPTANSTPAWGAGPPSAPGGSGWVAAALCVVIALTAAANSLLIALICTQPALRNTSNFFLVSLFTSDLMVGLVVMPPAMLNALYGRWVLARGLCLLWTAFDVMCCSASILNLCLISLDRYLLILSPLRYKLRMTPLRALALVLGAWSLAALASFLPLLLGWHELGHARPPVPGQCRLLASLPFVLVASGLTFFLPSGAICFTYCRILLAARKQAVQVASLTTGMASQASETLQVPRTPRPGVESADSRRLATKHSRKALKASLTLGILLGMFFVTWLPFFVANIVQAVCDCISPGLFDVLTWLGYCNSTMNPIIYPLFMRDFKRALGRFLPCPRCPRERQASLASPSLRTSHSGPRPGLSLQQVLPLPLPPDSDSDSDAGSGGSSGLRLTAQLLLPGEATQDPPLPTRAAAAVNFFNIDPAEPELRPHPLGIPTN
- protocol_summary: Radioligand binding, 5-HT6 receptor
- condition_summary: read-out: h5HT6 Ki; Table 7
pKi: −log10 of the molar value.

- entry_smiles: "COC[C@@H]1[C@@H](c2ccccc2)OCCN1c1nc(Nc2ccc(C)cc2)cc(N2CCCCC2)n1"
  tested_on: "human 5HT6 (Homo sapiens)"
  pKi: 7.89

* * *

Items are presented alongside their recorded pKi.
- tested_on: human 5HT1B (Homo sapiens, UniProt P28222)
- Construct: expressed in transfected cells
- Sequence (P28222 whole entry): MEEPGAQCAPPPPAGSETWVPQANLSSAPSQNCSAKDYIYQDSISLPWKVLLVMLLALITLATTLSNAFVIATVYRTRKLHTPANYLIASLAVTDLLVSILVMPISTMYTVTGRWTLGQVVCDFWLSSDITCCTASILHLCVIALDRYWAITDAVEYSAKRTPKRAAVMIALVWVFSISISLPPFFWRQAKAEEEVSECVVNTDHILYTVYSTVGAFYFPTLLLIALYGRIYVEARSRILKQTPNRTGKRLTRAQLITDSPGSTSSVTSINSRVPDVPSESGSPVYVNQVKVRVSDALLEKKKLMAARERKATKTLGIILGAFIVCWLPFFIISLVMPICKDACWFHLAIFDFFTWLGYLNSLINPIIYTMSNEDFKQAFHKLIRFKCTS
- protocol_summary: Radioligand binding, 5HT1B receptor ([3H]-serotonin)
- condition_summary: Table 7; read-out: h5HT1B Ki
- Experimental: Human 5HT1B, 5HT1D, 5HT1E, 5HT1F, and 5HT7 Receptors: The cell lysates of LM(tk-) clonal cell line stably transfected with the genes encoding each of these 5HT receptor-subtypes were prepared as described above. […] Nonspecific binding was determined in the presence of 10 µM serotonin. […] Binding data were analyzed using nonlinear regression and statistical techniques available in the GraphPAD Prism package (San Diego, CA). […]
pKi: −log10 of the molar value.

- compound: "Cc1ccc(Nc2cc(N(C)C)nc(N(C)CCc3c[nH]c4ccccc34)n2)cc1 [Example 77]"
  pKi: 6.44
- compound: "COc1cccc(Nc2cc(N3CCCCC3)nc(N(C)CCc3c[nH]c4ccccc34)n2)c1 [Example 17]"
  pKi: 6.39
- compound: "O=C1C(=Nc2ccc(Br)cc2)c2ccccc2N1c1ccccc1 [Example 98]"
  pKi: 5.62
- compound: "Cc1ccc(Nc2cc(N3CCCCC3)nc(N3CCN(c4ncccc4C(F)(F)F)CC3)n2)cc1 [Example 34]"
  pKi: 5.98
- compound: "Cc1ccc(Nc2cc(N3CCCCC3)nc(N(C)CCc3c[nH]c4ccccc34)n2)cc1 [Example 11]"
  pKi: 7.00
- compound: "Cc1ccc(Nc2cc(N3CCCCC3)nc(N(C)CCc3ccccc3)n2)cc1 [Example 22]"
  pKi: 5.70
- compound: "CN(CCc1c[nH]c2ccccc12)c1nc(Nc2ccc(F)c(F)c2)cc(N2CCCCC2)n1 [Example 15]"
  pKi: 6.31
- compound: "O=C1C(=Nc2ccc(Cl)cc2)c2ccccc2N1c1ccccc1 [Example 97]"
  pKi: 5.30
- compound: "CN(C)c1cc(Nc2ccc(Cl)c(Cl)c2)nc(Nc2ccccc2)n1 [Example 60]"
  pKi: 5.26
- compound: "O=C1C(=Nc2ccc(C(F)(F)F)cc2)c2ccccc2N1c1ccccc1 [Example 95]"
  pKi: 5.28
- compound: "O=C1C(=Nc2cccc(Cl)c2)c2ccccc2N1c1ccccc1 [Example 94]"
  pKi: 5.48
